- Tested on: MCF10A
- assay_details: percent viability (nuclei count relative to siNT); higher = more viable cells
- experimental_parameters: 20 nM; 72 h
Consider the following sequences and their measured percent viability readings.
The figure you give is taken to be in %; do not add the unit.

Give me measured percent viability, please, for this sequence: GAGCCAGUUGGACAGGAGC [hsa-miR-575]
129

Give percent viability for AAAGGUGCUCAAAUUAGACAU [hsa-miR-4735-3p]
21.4

* * *

- Test system: MCF10A
- assay_details: one-nucleolus phenotype percent effect (relative to siNT 0% and siNOL11 100%); higher = more cells with one nucleolus (ribosome biogenesis inhibition)
- experimental_parameters: 20 nM; 72 h
value_kind: one-nucleolus phenotype percent effect (%)
# output: bare number, implied unit %

Known results for sequences:
seq_text | unit_spec | one-nucleolus phenotype percent effect
GUGAGGAGGGGCUGGCAGGGAC [hsa-miR-6858-5p] | % | -12.2
ACCUGCCAGCACCUCCCUGCAG [hsa-miR-4722-3p] | % | 10.5
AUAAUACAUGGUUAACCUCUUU [hsa-miR-655] | % | 4.84

Return one-nucleolus phenotype percent effect (reported value) for this sequence: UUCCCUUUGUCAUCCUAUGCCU [hsa-miR-204-5p]
-10.4

For AAAGACUCUGCAAGAUGCCU [hsa-miR-4432] , write its one-nucleolus phenotype percent effect.
-5.81

Return one-nucleolus phenotype percent effect for the following sequence: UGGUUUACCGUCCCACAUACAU [hsa-miR-299-5p]
24.1

Please report the measured one-nucleolus phenotype percent effect for CAGGGCCAGGCACAGAGUAAG [hsa-miR-6895-5p]
13.8

Give one-nucleolus phenotype percent effect for the following sequence: ACGGAAUAUGUAUACGGAAUAUA [hsa-miR-3669]
-9.77

Specify reported one-nucleolus phenotype percent effect for the sequence shown: UCGUGGCCUGGUCUCCAUUAU [hsa-miR-1204]
-7.25

Give the measured one-nucleolus phenotype percent effect for CCGGGAGAAGGAGGUGGCCUGG [hsa-miR-6746-5p]
-15.9

Annotate the sequence AAUGGAUUUUUGGAGCAGG [hsa-miR-1246] with its measured one-nucleolus phenotype percent effect.
3.6

Recall and state the measured one-nucleolus phenotype percent effect for GAAAGUACAGAUCGGAUGGGU [hsa-miR-8054] .
-3.34
